src = patent US4327097A

tested on: Escherichia coli NIHJ; test: MIC, plate method, standard strains; type: cell-based; details: Table 4, standard strain; unit assumed
measurementLabel: MIC Escherichia coli NIHJ

molecule="Cc1csc(SCC2=C(C(=O)O)N3C(=O)C(NC(=O)C(NC(=O)N4CCN(C)C(=O)C4=O)c4ccccc4)C3SC2)n1 (single isomer, unassigned) [compound 71]" testsystem="Escherichia coli NIHJ" measurementlabel="MIC Escherichia coli NIHJ" measuredresult="< 0.79 µg/mL"
molecule="CCN1CCN(C(=O)NC(C(=O)NC2C(=O)N3C(C(=O)O)=C(CSc4nnnn4C)CSC23)c2ccc(O)cc2)C(=O)C1=O (centres unmarked) [Compound No. 72]" testsystem="Escherichia coli NIHJ" measurementlabel="MIC Escherichia coli NIHJ" measuredresult="< 0.1 µg/mL"

q: Value lookup for MIC Escherichia coli NIHJ; key = CCN1CCN(C(=O)NC(C(=O)NC2C(=O)N3C(C(=O)O)=C(CSc4nnnn4CC)CSC23)c2ccccc2)C(=O)C1=O (single isomer, unassigned) [Compound No. 77]
a: < 0.1 µg/mL

q: Please report the recorded MIC Escherichia coli NIHJ for CCN1CCN(C(=O)NC(C(=O)NC2C(=O)N3C(C(=O)O)=C(COC(N)=O)CSC23)c2ccc(O)cc2)C(=O)C1=O (single isomer, unassigned) [Compound No. 84] .
a: < 1.57 µg/mL

q: Value lookup for MIC Escherichia coli NIHJ; key = CCCCCCCCN1CCN(C(=O)N[C@@H](C(=O)NC2C(=O)N3C(C(=O)O)=C(CSc4nnnn4C)CSC23)c2ccccc2)C(=O)C1=O (single isomer, unassigned) [Compound No. 74]
a: 0.2 µg/mL
